protocol text: Half life in wild-type Sprague-Dawley rat at 4 mg/kg, po
Type: ADME, organism-based
Parameters: dose 4 mg/kg, route oral
assay context: in vivo
measurement kind: half-life
The number alone won't do; follow it with the unit.

## Input # query: half-life of entry `COc1ccc(-n2nc(C(N)=O)c3c2C(=O)N(c2ccc(N4CCCCC4=O)cc2)CC3)cc1`
## Output 3.3 h

----------
protocol text: Mean residence time in wild-type 30 mins activated charcoal pre-treated bile duct-cannulated Sprague-Dawley rat at 2 mg/kg, iv followed by activated charcoal administration 5 to 180 mins post compound dosing
Type: ADME, organism-based
Design: dose 2 mg/kg, route intravenous
assay context: in vivo
measurement kind: MRT

## Input Value lookup for MRT; key = `COc1ccc(-n2nc(C(N)=O)c3c2[14C](=O)N(c2ccc(N4CCCCC4=O)cc2)CC3)cc1`
## Output 36 min
